assay: Inhibition of INFgamma release in MLR cells relative to calcitriol
Assay type: functional, Homo sapiens
Note to self: Ratio IC50 under 2 means T, ties and anything higher get F.

1) C=C1/C(=C\C=C2/CCC[C@]3(C)[C@@H]([C@@H](CCCC(C)(C)O)CC[C@@H](O)C(C)(C)O)CC[C@@H]23)C[C@@H](O)C[C@@H]1O    F
2) CC(C)(O)CCC[C@H](CC[C@@H](O)C(C)(C)O)[C@H]1CC[C@H]2/C(=C/C=C3C[C@@H](O)C[C@H](O)C3)CCC[C@]12C    F
3) CC(C)(O)CCC[C@@H](CC[C@@H](O)C(C)(C)O)[C@H]1CC[C@H]2/C(=C/C=C3C[C@@H](O)C[C@H](O)C3)CCC[C@]12C    F
4) C=C1/C(=C\C=C2/CCC[C@]3(C)[C@@H](C(CCCC(C)(C)O)CCCC(C)(C)O)CC[C@@H]23)C[C@@H](O)C[C@@H]1O    T
5) CC(C)(O)CCCC(CCCC(C)(C)O)[C@H]1CC[C@H]2/C(=C/C=C3C[C@@H](O)C[C@H](O)C3)CCC[C@]12C    T
6) C=C1/C(=C\C=C2/CCC[C@]3(C)[C@@H]([C@H](CCCC(C)(C)O)CC[C@@H](O)C(C)(C)O)CC[C@@H]23)C[C@@H](O)C[C@@H]1O    F

---

Test system: Kidney
assay: Metabolic stability in rat kidney perfusate
Assay type: ADME, tissue-based
reportedProperty: Stability

1) C=C1/C(=C\C=C2/CCC[C@]3(C)[C@@H](C(CCCC(C)(C)O)CCCC(C)(C)O)CC[C@@H]23)C[C@@H](O)C[C@@H]1O    80%
2) C=C1/C(=C\C=C2/CCC[C@]3(C)[C@@H]([C@H](C)CCCC(C)(C)O)CC[C@@H]23)C[C@@H](O)C[C@@H]1O    < 50%
3) CC(C)(O)CCCC(CCCC(C)(C)O)[C@H]1CC[C@H]2/C(=C/C=C3C[C@@H](O)C[C@H](O)C3)CCC[C@]12C    80%

---

assay: Maximum tolerated dose in mouse
Assay type: ADME, organism-based
conditionSet: in vivo
# MTD annotations
reportedProperty: MTD

1. CC(C)(O)CCCC(CCCC(C)(C)O)[C@H]1CC[C@H]2/C(=C/C=C3C[C@@H](O)C[C@H](O)C3)CCC[C@]12C    3 µg/kg
2. C=C1/C(=C\C=C2/CCC[C@]3(C)[C@@H](C(CCCC(C)(C)O)CCCC(C)(C)O)CC[C@@H]23)C[C@@H](O)C[C@@H]1O    < 1 µg/kg
3. C=C1/C(=C\C=C2/CCC[C@]3(C)[C@@H]([C@H](CCCC(C)(C)O)CC[C@@H](O)C(C)(C)O)CC[C@@H]23)C[C@@H](O)C[C@@H]1O    3 µg/kg
4. C=C1/C(=C\C=C2/CCC[C@]3(C)[C@@H]([C@@H](CCCC(C)(C)O)CC[C@@H](O)C(C)(C)O)CC[C@@H]23)C[C@@H](O)C[C@@H]1O    3 µg/kg
5. CC(C)(O)CCC[C@H](CC[C@@H](O)C(C)(C)O)[C@H]1CC[C@H]2/C(=C/C=C3C[C@@H](O)C[C@H](O)C3)CCC[C@]12C    30 µg/kg
6. CC(C)(O)CCC[C@@H](CC[C@@H](O)C(C)(C)O)[C@H]1CC[C@H]2/C(=C/C=C3C[C@@H](O)C[C@H](O)C3)CCC[C@]12C    > 100 µg/kg

---

assay: Inhibition of INFgamma release in MLR cells
Assay type: functional, cell-based
conditionSet: Homo sapiens
reportedProperty: IC50 (nM)

1. CC(C)(O)CCCC(CCCC(C)(C)O)[C@H]1CC[C@H]2/C(=C/C=C3C[C@@H](O)C[C@H](O)C3)CCC[C@]12C    0.044
2. CC(C)(O)CCC[C@@H](CC[C@@H](O)C(C)(C)O)[C@H]1CC[C@H]2/C(=C/C=C3C[C@@H](O)C[C@H](O)C3)CCC[C@]12C    3.86
3. C=C1/C(=C\C=C2/CCC[C@]3(C)[C@@H]([C@@H](CCCC(C)(C)O)CC[C@@H](O)C(C)(C)O)CC[C@@H]23)C[C@@H](O)C[C@@H]1O    0.579

---

assay: Inhibition of INFgamma release in MLR cells
Type: functional, cell-based
conditionSet: Homo sapiens
pIC50: −log10 of the molar value.
reportedProperty: pIC50

1. CC(C)(O)CCC[C@H](CC[C@@H](O)C(C)(C)O)[C@H]1CC[C@H]2/C(=C/C=C3C[C@@H](O)C[C@H](O)C3)CCC[C@]12C    9.11
2. C=C1/C(=C\C=C2/CCC[C@]3(C)[C@@H](C(CCCC(C)(C)O)CCCC(C)(C)O)CC[C@@H]23)C[C@@H](O)C[C@@H]1O    11.40
3. C=C1/C(=C\C=C2/CCC[C@]3(C)[C@@H]([C@H](CCCC(C)(C)O)CC[C@@H](O)C(C)(C)O)CC[C@@H]23)C[C@@H](O)C[C@@H]1O    10.10
